System: IGROV1 ovarian
Test: NCI tumour cell line growth inhibition, 48 h
reported_property: TGI (µM)
// units = µM; emit number, no label

Reference set, count: 3
molecule=O=[N+]([O-])c1ccc(Oc2nc(Nc3ccc(O[C@H]4CO[C@H]5[C@@H]4OC[C@@H]5O)c(Cl)c3)ncc2F)c(Cl)c1 reported_property=TGI uom=µM value_measured=2.77
molecule=CSc1cc(-c2ccccn2)nc(-c2ccccn2)c1 reported_property=TGI uom=µM value_measured=8.99
molecule=O=c1cc(NNc2cccc(F)c2)[nH]c(=O)[nH]1 reported_property=TGI uom=µM value_measured=46.7

Challenge: Can you look up the measured TGI of N#Cc1c(Br)n(C2OC(CO)C(O)C2O)c2ncnc(N)c12 (stereo not drawn) for me?
Response given: 1.76

Challenge: Can you look up the measured TGI of CCCCCc1cc2cc3c(c(O)c2c(=O)[nH]1)C1(CCC3)C(O)=c2c(=O)c3c(=O)cc(OC)c(=O)c=3c(=O)c2=C1O (stereo not drawn) for me?
Response given: 3.48

Challenge: Can you look up the measured TGI of `CC(=O)OC(Cc1ccc2ccccc2n1)(C(F)(F)F)C(F)(F)F` for me?
Response given: 6.02

Challenge: Can you look up the measured TGI of `CSc1c(C#N)c(N)nc2c(N=Nc3ccc(Br)cc3)c(N)nn12` for me?
Response given: 8.82

Challenge: Can you look up the measured TGI of `Brc1ccc2[nH]cc(-c3nc(-c4c[nH]c5ncccc45)cs3)c2c1` for me?
Response given: 23

Challenge: Can you look up the measured TGI of O=[N+]([O-])c1ccc(C2CC(c3ccccc3Cl)=Nc3ccccc3S2=O)cc1 (stereo not drawn) for me?
Response given: 8.57

Challenge: Can you look up the measured TGI of `O=C1C=C2SC3C[C@@]24CC1[N+]1=c2c4c(c(O)c4c2=C(C=N4)CC1)N3` for me?
Response given: 6.48
